Method Summary: Balb/C mouse pharmacokinetics (plasma, colon, ileum)
Assay type: in vivo
Measurement Parameters: male, po, Balb/C mice, p.o. 5 mg/kg, ileum, read-out: Curve area AUC0-t
Quick reference for log10(AUC(0-t)) among some compounds
Scale type: logarithmic (base 10). Underlying AUC(0-t) unit: ng·h/mL.

Answered examples (10):
INSERT INTO assay_data (compound_structure_string, metric_name, measured_number) VALUES
  ('Cc1cc(Nc2nc(N[C@@H]3C[C@H]4CC[C@@H](C3)N4CCC#N)nc3ccsc23)n[nH]1', 'log10(AUC(0-t))', 4.99),
  ('Cc1cc(Nc2nc(N[C@@H]3C[C@H]4CC[C@@H](C3)N4CCC#N)nc3cc(Br)ccc23)n[nH]1', 'log10(AUC(0-t))', 5.07),
  ('Cc1cc(Nc2nc(N[C@@H]3C[C@H]4CCC[C@@H](C3)N4C(=O)CN3CCOCC3)nc3sccc23)n[nH]1', 'log10(AUC(0-t))', 4.45),
  ('Cc1cc(Nc2nc(N[C@@H]3C[C@H]4CC[C@@H](C3)N4CCC#N)nc3cc(Cl)ccc23)n[nH]1', 'log10(AUC(0-t))', 4.90),
  ('Cc1cc(Nc2nc(N[C@@H]3C[C@H]4CCC[C@@H](C3)N4C(=O)c3ccccn3)nc3sccc23)n[nH]1', 'log10(AUC(0-t))', 4.27),
  ('Cc1cc(Nc2nc(N[C@@H]3C[C@H]4CCC[C@@H](C3)N4C(=O)c3nccn3C)nc3sccc23)n[nH]1', 'log10(AUC(0-t))', 4.00),
  ('Cc1cc(Nc2nc(N[C@@H]3C[C@H]4CCC[C@@H](C3)N4S(=O)(=O)N3CC(C#N)C3)nc3sccc23)n[nH]1', 'log10(AUC(0-t))', 4.56),
  ('Cc1cc(Nc2nc(N[C@@H]3C[C@H]4CCC[C@@H](C3)N4C(=O)c3ccncc3)nc3sccc23)n[nH]1', 'log10(AUC(0-t))', 4.60),
  ('Cc1cc(Nc2nc(N[C@@H]3C[C@H]4CCC[C@@H](C3)N4C(=O)CN3CCOCC3)nc3ccsc23)n[nH]1', 'log10(AUC(0-t))', 4.25),
  ('Cc1cc(Nc2nc(N[C@@H]3C[C@H]4CC[C@@H](C3)N4CCC#N)nc3cc(N4CCOCC4)ccc23)n[nH]1', 'log10(AUC(0-t))', 4.71);

Shift focus to the following entry.
Value of log10(AUC(0-t)) reported for the compound Cc1cc(Nc2nc(N[C@@H]3C[C@H]4CC[C@@H](C3)N4CCC#N)nc3cc(-c4cccnc4)ccc23)n[nH]1 is 4.01

* * *

Tgt: JAK3 (Homo sapiens, UniProt P52333)
Sequence (P52333 1-1124): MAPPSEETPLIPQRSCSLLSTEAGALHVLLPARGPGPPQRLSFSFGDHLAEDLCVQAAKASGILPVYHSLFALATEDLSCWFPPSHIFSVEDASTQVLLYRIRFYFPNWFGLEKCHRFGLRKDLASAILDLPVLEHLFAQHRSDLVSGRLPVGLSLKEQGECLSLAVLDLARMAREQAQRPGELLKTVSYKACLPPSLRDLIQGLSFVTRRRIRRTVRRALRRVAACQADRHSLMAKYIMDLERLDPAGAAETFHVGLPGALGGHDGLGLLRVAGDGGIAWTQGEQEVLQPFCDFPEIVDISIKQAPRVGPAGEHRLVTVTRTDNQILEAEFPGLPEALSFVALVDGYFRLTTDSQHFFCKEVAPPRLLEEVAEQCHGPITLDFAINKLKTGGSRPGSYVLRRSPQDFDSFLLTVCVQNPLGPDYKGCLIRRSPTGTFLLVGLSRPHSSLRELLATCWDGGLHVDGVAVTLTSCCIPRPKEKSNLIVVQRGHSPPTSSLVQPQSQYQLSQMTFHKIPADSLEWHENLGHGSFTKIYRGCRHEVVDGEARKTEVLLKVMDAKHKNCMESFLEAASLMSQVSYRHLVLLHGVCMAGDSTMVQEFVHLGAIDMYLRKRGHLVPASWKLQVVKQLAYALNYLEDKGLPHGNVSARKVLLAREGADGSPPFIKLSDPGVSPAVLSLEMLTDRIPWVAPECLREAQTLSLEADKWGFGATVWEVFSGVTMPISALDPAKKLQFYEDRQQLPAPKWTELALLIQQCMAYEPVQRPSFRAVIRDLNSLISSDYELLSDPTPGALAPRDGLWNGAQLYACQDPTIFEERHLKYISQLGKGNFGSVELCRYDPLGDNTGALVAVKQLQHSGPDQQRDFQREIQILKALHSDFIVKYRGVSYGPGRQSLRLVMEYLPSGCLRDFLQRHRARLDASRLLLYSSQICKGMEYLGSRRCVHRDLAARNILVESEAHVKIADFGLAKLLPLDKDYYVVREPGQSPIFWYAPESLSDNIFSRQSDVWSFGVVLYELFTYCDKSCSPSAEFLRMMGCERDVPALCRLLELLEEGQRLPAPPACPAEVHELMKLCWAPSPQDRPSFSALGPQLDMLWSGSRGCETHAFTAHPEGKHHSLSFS
// IC50 lookup, one value per entry

Reference set (3 entries):
INSERT INTO assay_data (molecule, metric_name, result) VALUES
  ('N#CCCN1[C@@H]2CC[C@H]1C[C@H](Nc1nc(Nc3cnccn3)cc3ncccc13)C2 [Embodiment 29]', 'IC50', '> 100 nM'),
  ('Cc1cc(Nc2nc(N[C@@H]3C[C@H]4CC[C@@H](C3)N4C(=O)CN(C)C)nc3sccc23)n[nH]1 [Embodiment 243]', 'IC50', '148 nM'),
  ('Cc1cc(Nc2nc(N(C)[C@@H]3C[C@H]4CCC[C@@H](C3)N4S(=O)(=O)N3CC(C#N)C3)nc3sccc23)n[nH]1 [Embodiment 239]', 'IC50', '3.11 nM');

Sample Cc1cc(Nc2nc(N[C@@H]3C[C@H]4CC[C@@H](C3)N4S(=O)(=O)N3CC(C#N)C3)nc3cc(Cl)ccc23)n[nH]1 [Embodiment 214] ; IC50 observed: 133 nM

Item: COc1ccc2c(Nc3cc(C)[nH]n3)nc(N[C@@H]3C[C@H]4CC[C@@H](C3)N4CCC#N)nc2c1 [Embodiment 169] | IC50: 28.8 nM

Measured IC50, Cc1cc(Nc2nc(N[C@@H]3C[C@H]4CCC[C@@H](C3)N4C(=O)CN(C)C)nc3sccc23)n[nH]1 [Embodiment 242] : 6.58 nM

Entry N#CCCN1[C@@H]2CC[C@H]1C[C@H](Nc1nc(Nc3cc(CO)[nH]n3)c3ccsc3n1)C2 [Embodiment 273] ; IC50 = > 200 nM

* * *

Method Summary: Balb/C mouse pharmacokinetics (plasma, colon, ileum)
Type: in vivo
Measurement Parameters: male, po, Balb/C mice, p.o. 5 mg/kg, ileum, read-out: Blood concentration Cmax
Experimental: […] The main pharmacokinetic parameters were calculated with WinNonlin 6.1, and the results of mouse pharmacokinetic experiments are shown in Table 3: […]
Note: every record was labeled by where its Cmax sits among low bracket = under 9000 ng/mL, middle bracket = from 9000 ng/mL up to 20000 ng/mL, high bracket = 20000 ng/mL and over

Worked set:
INSERT INTO assay_data (compound_structure_string, cat) VALUES
  ('Cc1cc(Nc2nc(N[C@@H]3C[C@@H]4CN(CCC#N)C[C@@H]4C3)nc3ccsc23)n[nH]1', 'low bracket'),
  ('Cc1cc(Nc2nc(N[C@@H]3C[C@H]4CCC[C@@H](C3)N4C(=O)c3ccncc3)nc3sccc23)n[nH]1', 'high bracket');

Input line: Bin this entry: Cc1cc(Nc2nc(N[C@@H]3C[C@H]4CCC[C@@H](C3)N4C(=O)c3nccn3C)nc3sccc23)n[nH]1
Output line: low bracket

Input line: Note: place this molecule into its band. Item: Cc1cc(Nc2nc(N[C@@H]3C[C@H]4CC[C@@H](C3)N4S(=O)(=O)N3CC(C#N)C3)nc3cc(Cl)ccc23)n[nH]1
Output line: high bracket

Input line: Exercise: read the entry Cc1cc(Nc2nc(N[C@@H]3C[C@H]4CCC[C@@H](C3)N4S(=O)(=O)N3CC(C#N)C3)nc3sccc23)n[nH]1 and state which class it falls under.
Output line: high bracket

Input line: Just checking, what class would you give Cc1cc(Nc2nc(N[C@@H]3C[C@H]4CCC[C@@H](C3)N4CCC#N)nc3scnc23)n[nH]1 here?
Output line: low bracket

* * *

Method Summary: Balb/C mouse pharmacokinetics (plasma, colon, ileum)
Type: in vivo
Measurement Parameters: male, po, Balb/C mice, p.o. 5 mg/kg, colon, read-out: Mean detention time MRT
Reported values of MRT for individual entries

Some solved entries appear below for comparison.
INSERT INTO results (compound_structure_string, result) VALUES
  ('Cc1cc(Nc2nc(NC3CCN(CCC#N)CC3)nc3sccc23)n[nH]1', '4.74 h'),
  ('Cc1cc(Nc2nc(N[C@@H]3C[C@@H]4CN(CCC#N)C[C@@H]4C3)nc3ccsc23)n[nH]1', '4.94 h'),
  ('Cc1cc(Nc2nc(N[C@@H]3C[C@H]4CCC[C@@H](C3)N4CCC#N)nc3scnc23)n[nH]1', '4.26 h'),
  ('Cc1cc(Nc2nc(N[C@@H]3C[C@H]4CCC[C@@H](C3)N4C(=O)CN3CCOCC3)nc3sccc23)n[nH]1', '4.79 h'),
  ('Cc1cc(Nc2nc(N[C@@H]3C[C@H]4CC[C@@H](C3)N4CCC#N)nc3sc(C)cc23)n[nH]1', '3.89 h');

Measured MRT, Cc1cc(Nc2nc(N[C@@H]3C[C@H]4CCC[C@@H](C3)N4C(=O)c3ccccn3)nc3sccc23)n[nH]1 : 3.39 h

get_value(item= Cc1cc(Nc2nc(N[C@@H]3C[C@H]4CCC[C@@H](C3)N4S(=O)(=O)N3CC(C#N)C3)nc3sccc23)n[nH]1 , readout=MRT) returns 4.16 h

Where these numbers come from: patent US20230043863A1
